These data points were gathered from patent US20110294738A1.

Attribute: Fold Shift of EC50
- Experimental Target: PTHR1 receptor
- Sequence (P25961 whole entry): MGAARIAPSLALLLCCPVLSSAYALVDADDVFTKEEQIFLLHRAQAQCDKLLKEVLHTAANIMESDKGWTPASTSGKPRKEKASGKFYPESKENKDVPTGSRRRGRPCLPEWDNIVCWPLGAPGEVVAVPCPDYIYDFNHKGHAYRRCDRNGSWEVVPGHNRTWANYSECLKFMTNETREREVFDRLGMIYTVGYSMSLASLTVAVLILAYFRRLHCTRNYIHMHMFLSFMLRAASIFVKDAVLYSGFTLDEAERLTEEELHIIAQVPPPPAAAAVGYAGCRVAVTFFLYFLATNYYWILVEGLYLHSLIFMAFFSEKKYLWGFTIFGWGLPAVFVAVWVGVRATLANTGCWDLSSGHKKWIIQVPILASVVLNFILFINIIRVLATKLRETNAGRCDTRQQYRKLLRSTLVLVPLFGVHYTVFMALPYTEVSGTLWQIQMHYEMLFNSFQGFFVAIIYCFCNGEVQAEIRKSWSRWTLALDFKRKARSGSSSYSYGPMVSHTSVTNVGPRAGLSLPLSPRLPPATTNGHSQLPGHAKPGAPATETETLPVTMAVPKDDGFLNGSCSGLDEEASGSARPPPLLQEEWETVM
* marks the point of attachment. Palmitoyl = CCCCCCCCCCCCCCCC(=O)*
Give the number; fold is assumed, so skip it.

Observe how each entry below is paired with its result.
Binder	Unit Annotation	Fold Shift of EC50
Palmitoyl-RETNAGRSDTRQQY-NH2 (SMILES CCCCCCCCCCCCCCCC(=O)N[C@@H](CCCNC(=N)N)C(=O)N[C@@H](CCC(=O)O)C(=O)N[C@H](C(=O)N[C@@H](CC(N)=O)C(=O)N[C@@H](C)C(=O)NCC(=O)N[C@@H](CCCNC(=N)N)C(=O)N[C@@H](CO)C(=O)N[C@@H](CC(=O)O)C(=O)N[C@H](C(=O)N[C@@H](CCCNC(=N)N)C(=O)N[C@@H](CCC(N)=O)C(=O)N[C@@H](CCC(N)=O)C(=O)N[C@@H](Cc1ccc(O)cc1)C(N)=O)[C@@H](C)O)[C@@H](C)O) [Compound 62]	fold	1.1
Palmitoyl-YFRRLHSTRNYIH-NH2 (SMILES CCCCCCCCCCCCCCCC(=O)N[C@@H](Cc1ccc(O)cc1)C(=O)N[C@@H](Cc1ccccc1)C(=O)N[C@@H](CCCNC(=N)N)C(=O)N[C@@H](CCCNC(=N)N)C(=O)N[C@@H](CC(C)C)C(=O)N[C@@H](Cc1c[nH]cn1)C(=O)N[C@@H](CO)C(=O)N[C@H](C(=O)N[C@@H](CCCNC(=N)N)C(=O)N[C@@H](CC(N)=O)C(=O)N[C@@H](Cc1ccc(O)cc1)C(=O)N[C@H](C(=O)N[C@@H](Cc1c[nH]cn1)C(N)=O)[C@@H](C)CC)[C@@H](C)O) [Compound 6]	fold	1

Next:
What does the record list as Fold Shift of EC50 for Palmitoyl-TNAGRADTRQQYRKLL-NH2 (SMILES CCCCCCCCCCCCCCCC(=O)N[C@H](C(=O)N[C@@H](CC(N)=O)C(=O)N[C@@H](C)C(=O)NCC(=O)N[C@@H](CCCNC(=N)N)C(=O)N[C@@H](C)C(=O)N[C@@H](CC(=O)O)C(=O)N[C@H](C(=O)N[C@@H](CCCNC(=N)N)C(=O)N[C@@H](CCC(N)=O)C(=O)N[C@@H](CCC(N)=O)C(=O)N[C@@H](Cc1ccc(O)cc1)C(=O)N[C@@H](CCCNC(=N)N)C(=O)N[C@@H](CCCCN)C(=O)N[C@@H](CC(C)C)C(=O)N[C@@H](CC(C)C)C(N)=O)[C@@H](C)O)[C@@H](C)O) [Compound 77] ?
6.9
